Entries annotated with measured IL-6 concentration (average ± deviation)
Test system: IL-6
Assay: LPS-induced IL-6 secretion reduction in RAW264.7 cells (ELISA)
Assay type: cell-based, mouse
Conditions: sample 100 μg/ml 1 h, then LPS 1 μg/ml 24 h, Table 3
Method: In DMEM (Dulbecco Modified Eagle Medium, Hyclone, Thermo Scientific) medium to which 10% Fetal Bovine Serum was added, RAW264.7 cells, a mouse macrophage family, were suspended at a concentration of 1×10^5 cells/ml, and culture was conducted in a 5% CO2 humidified incubator at 37° C. […] The IL-6 level in the recovered supernatant was measured according to the manual provided by the Mouse IL-6 ELISA set (BD Biosciences). […]
The reply should be a number in pg/µL, with the unit left off.

Example compounds with recorded IL-6 concentration (average ± deviation):
{"columns": ["Compound", "Reading Unit", "IL-6 concentration (average ± deviation)"],
 "data": [
  ["CCCCC/C=C\\C/C=C\\CCCCCCCC(=O)OC(COC(=O)CCCCCCCCCCC)COC(=O)C(C)CC (centres unmarked)", "pg/µL", 0.788],
  ["CCCCC/C=C\\C/C=C\\CCCCCCCC(=O)OC(COC(=O)CCC)COC(=O)CCCCCCC (centres unmarked)", "pg/µL", 0.741]
]}

Enquiry: Which measured IL-6 concentration (average ± deviation) value corresponds to CCCCC/C=C\C/C=C\CCCCCCCC(=O)OC(COC(=O)CCCCCC)COC(=O)CCCCCCCCCCCCCCC (centres unmarked) ?
Return: 0.658

Enquiry: Again, but for CCCCC/C=C\C/C=C\CCCCCCCC(=O)OC(COC(=O)CC)COC(=O)CCCCCCCCCCCCCCC (centres unmarked)
Return: 0.708

Enquiry: Again, but for CCCCC/C=C\C/C=C\CCCCCCCC(=O)OC(COC(=O)CC)COC(=O)CCCCCCCCC (centres unmarked)
Return: 0.745

====

tested on: IL-4; assay: PKC activator-induced IL-4 secretion reduction in EL-4 cells (ELISA); assay type: cell-based, mouse; conditions: sample 100 μg/ml 2 h, then PKC activator 18 h, Table 12
Entries annotated with measured IL-4 concentration (average ± deviation)
The reply should be a number in pg/µL, with the unit left off.

Example molecules with recorded IL-4 concentration (average ± deviation):
{"columns": ["Molecule", "IL-4 concentration (average ± deviation) (pg/µL)"],
 "data": [
  ["CCCCCC=CCC=CCCCCCCCC(=O)OC(COC(=O)CCCCCCC)COC(=O)C(C)(C)C (centres unmarked) [EC_A89]", 620.1],
  ["CCCCC/C=C\\C/C=C\\CCCCCCCC(=O)OC(COC(=O)CCCCCCCCC)COC(=O)C(C)(C)C (centres unmarked) [EC_A101]", 634.7],
  ["CCCCC/C=C\\C/C=C\\CCCCCCCC(=O)OC(COC(=O)CCC)COC(=O)CCCCCCCCC (centres unmarked) [EC_A98]", 584.2],
  ["CCCCC/C=C\\C/C=C\\CCCCCCCC(=O)OC(COC(=O)CC)COC(=O)CCCCCCCCCCC (centres unmarked) [EC_A91]", 446.0],
  ["CCCCC/C=C\\C/C=C\\CCCCCCCC(=O)OC(COC(=O)CCCCCCCCC)COC(=O)C(C)C (centres unmarked) [EC_A100]", 539.7],
  ["CCCCC/C=C\\C/C=C\\CCCCCCCC(=O)OC(COC(=O)CCCC)COC(=O)CCCCCCCCCCC (centres unmarked) [EC_A93]", 507.9],
  ["CCCCC/C=C\\C/C=C\\CCCCCCCC(=O)OC(COC(=O)CCCCCCCCCCC)COC(=O)C(C)C (centres unmarked) [EC_A94]", 523.8]
]}

Could you now look at the following molecule, please?
Enquiry: Give IL-4 IL-4 concentration (average ± deviation) for CCCCC/C=C\C/C=C\CCCCCCCC(=O)OC(COC(=O)CCCCCCCCCCC)COC(=O)C(C)(C)C (centres unmarked) [EC_A95]
Return: 680.1
